Procedure details: PK of compound of Formula (Ia) after single subcutaneous dose of solution formulations in Wistar Han rats
Type: in vivo
Condition set: male, Wistar Han, rat, plasma, sc, 50 mg/kg, Wistar Han rats, SC 50 mg/kg, 500 mg/mL solution X (5.00% ethanol, 1.91% poloxamer 188), 2352 h, animals #1-#3
Method: Formulations containing the compound of Formula (Ia), or a pharmaceutically acceptable salt thereof, were prepared as solutions and optionally administered subcutaneously or intramuscularly to rats, rabbits, and/or dogs. A solution of about 400 mg/mL of the compound of Formula (Ia) having 19.14 w/w % water, 40.66 w/w % PEG 300, 35.20 w/w % of a sodium salt of a compound of Formula (Ia), and 5.00% ethanol was prepared. […]
Attribute measured: concentration at 2352 h (nM)

Chemical smiles: CC(C)(C#Cc1ccc(-c2ccc(Cl)c3c(NS(C)(=O)=O)nn(CC(F)(F)F)c23)c([C@H](Cc2cc(F)cc(F)c2)NC(=O)Cn2nc(C(F)(F)F)c3c2C(F)(F)[C@@H]2C[C@H]32)n1)S(C)(=O)=O
Obs value: 111
